- System: RPMI-8226 leukemia
- ASSAY PROTOCOL: NCI tumour cell line growth inhibition, 48 h
ASSAY READOUT: GI50

Would you please look over these solved cases?
C#Cc1cccc(Nc2ncnc3ccc(-c4cnc(N)nc4)cc23)c1: 1.43 µM
CCOP(=O)(OCC)C(NC(c1ccccc1)c1ccccc1)c1ccsc1 (stereo not given): 7.76 µM
O=C(CCN1CCCC1)Nc1ccc2c(Nc3ccc(Br)cc3)c3ccccc3nc2c1: 1.73 µM
CCOC(=O)Nc1cc2c(c(N)n1)N=C(c1ccccc1)CN2: < 0.0001 µM
Cn1c2ccccc2c2c(=O)n(CCCC(=O)NCCc3cnc[nH]3)c3c(-c4ccccc4)nnn3c21: 10.5 µM

# context switch: different compound, same GI50
Lab note: need GI50 with RPMI-8226 leukemia for entry CCCCCCCCCCCCSC1=CC(=O)C=CC1=O , please look it up.
0.804 µM

* * *

- System: SNB-75 CNS
- ASSAY PROTOCOL: NCI tumour cell line growth inhibition, 48 h
Mark Condition met for reported TGI of 3 µM or greater; mark Condition not met for anything smaller.

// below: answered compounds
O=C(CCN1CCCC1)Nc1ccc2c(Nc3ccc(Br)cc3)c3ccccc3nc2c1: Condition not met
CCOC(=O)C(CCSC)(CCSC)C(=O)OCC: Condition met
Cc1ccc(C(CCO)CCO)nc1: Condition met
CC(=O)OC1(C)CC(C)C(=O)C(C(O)CC2CC(=O)NC(=O)C2)C1 (configuration not stated): Condition not met
O=C(C(=O)c1cccnc1)c1cccnc1: Condition met
CCN(CC)CCC(=O)Nc1ccc2sc3ccccc3c(=O)c2n1: Condition met

Confirm if TGI reported for the compound CC1=C(N2CC2)C(=O)C(C)=C(N2CC2)C1=O is 3 µM or above.
Condition not met

Try the compound Cc1ccc2nc(-c3nccn3C)cc(C(=O)NC(C)CN(C)C)c2c1 (configuration not stated)
Condition met

Next up: COc1ccc(C2CC(c3ccc4ccccc4c3)=NN2c2nc(O)c(C3=c4cc(Cl)ccc4=NC3=O)s2)cc1 (configuration not stated)
Condition not met

What would you report for NCCCC(N)(C(=O)O)C(F)F (configuration not stated) ?
Condition met

Record: O=C(Nc1ccccc1)c1cc2cc(CCl)ccc2oc1=O
Condition met

Now the same for CC1=C(C(=O)Nc2ccccc2C)C(c2ccccc2O)C(C(=O)Nc2ccccc2C)=C(C)N1
Condition met

* * *

- System: SK-MEL-2 melanoma
- ASSAY PROTOCOL: NCI tumour cell line growth inhibition, 48 h
ASSAY READOUT: GI50

Known results for compounds:
Cn1c2ccccc2c2c(=O)n(CCCC(=O)NCCc3cnc[nH]3)c3c(-c4ccccc4)nnn3c21: 10.3 µM
O=C(Nc1cccc(-n2ccc3c(NC(=O)c4ccccc4)nccc32)c1)c1ccc(Cl)c(Cl)c1: 1.12 µM
COC1/C=C/OC2(C)Oc3c(C)c(O)c4c(O)c(c(/C=N/N(c5ccccc5)c5ccccc5)c(O)c4c3C2=O)NC(=O)C(C)=C/C=C/C(C)C(O)C(C)C(O)C(C)C(OC(C)=O)C1C (stereo not drawn): 1.84 µM
C#Cc1cccc(Nc2ncnc3ccc(-c4cnc(N)nc4)cc23)c1: 2.11 µM

Entry NS(=O)(=O)c1ccc(-n2nc(-c3ccccc3)cc2-c2cc(O)ccc2O)cc1 has what GI50?
> 100 µM

What about this compound? CN(CCCCCCCCNc1ccnc2ccccc12)Cc1ccc(-c2ccc(-c3ccc(C#N)cc3)s2)cc1
1.85 µM

O=C(CS(=O)c1nc2ccccc2nc1-c1ccccc1)Nc1ccc(Cl)cc1 (stereo not drawn) ?
27.4 µM

// next record Cl.[O-]c1cccc2cccnc12.[O-]c1cccc2cccnc12.[O-]c1cccc2cccnc12.[O-]c1cccc2cccnc12.[Ti+4]
3.32 µM
